Origin of measurements: the C3SDB collision cross section collection

Conditions: [M+Na]+; instrument: DT; single field, calibrated with ESI Low Concentration Tuning Mix (Agilent)
MEASURE: collision cross section (N2) (Å²)

Sample records with collision cross section (N2):
compound="N[C@@H](CCOC(=O)CCC(=O)O)C(=O)O [O-SUCCINYL-HOMOSERINE]" reported=145.7
compound="O=C(O)C1=CC(=O)[C@@H](O)[C@H](O)C1 [3-DEHYDROSHIKIMATE]" reported=149.1

(1) N[C@@H](COP(=O)(O)O)C(=O)O [O-PHOSPHOSERINE]
(2) C[C@H](CCC(=O)NCC(=O)O)[C@H]1CC[C@H]2[C@@H]3[C@H](O)C[C@@H]4C[C@H](O)CC[C@]4(C)[C@H]3C[C@H](O)[C@]12C [GLYCOCHOLATE]
query: Which gives the smaller collision cross section (N2) number: 1 or 2 ? State the label of the item chosen.
result: 1
(1: 140.8 Å², 2: 202.2 Å²)

(I) CC(O)(CC(=O)O)CC(=O)O [3-HYDROXYMETHYLGLUTARATE]
(II) CC(C)(COP(=O)(O)OP(=O)(O)OC[C@H]1O[C@@H](n2cnc3c(N)ncnc32)[C@H](O)[C@@H]1OP(=O)(O)O)[C@@H](O)C(=O)NCCC(=O)NCCS [COENZYME A]
query: Which record would sort first by descending collision cross section (N2), I or II ? Select an item and report its label.
result: II

====

Details: [M+H]+; instrument: DT; single field, calibrated with Agilent tune mix (Agilent)
MEASURE: collision cross section (N2) (Å²)

compound="CCCCCCCC/C=C\\CCCCCCCC(=O)OC[C@@H](O)COP(=O)(O)OC[C@H](N)C(=O)O [LPS(18:1)]" measure="collision cross section (N2)" reported=224.2
compound="CCCCCCCCCCCCC=CC[C@@H](O)[C@H](COP(=O)([O-])OCC[N+](C)(C)C)NC(=O)CCCCCCCCCCCCCCCCCCCCC [SM(40:1)]" measure="collision cross section (N2)" reported=300.7
compound="CCCCC/C=C\\C/C=C\\CCCCCCCCCC(=O)O[C@H](COC(=O)CCCCCCCCCCCCCCC)COP(=O)(O)OCCN [PE(36:2)]" measure="collision cross section (N2)" reported=279.3

====

Conditions: [M+Na]+; instrument: DT; stepped-field
MEASURE: collision cross section (N2) (Å²)

compound="N[C@H]1C(O)O[C@H](CO)[C@@H](O)[C@@H]1O (some centres not stated)" reported=147.19
compound="O=C(CO)[C@@H](O)[C@H](O)[C@H](O)COP(=O)(O)O [Fructose-6-phosphate]" reported=156.44
compound=O=C(O)c1cc(=O)[nH]c(=O)[nH]1 reported=181.87
compound=NC(=O)NCCC(=O)O reported=135.8
compound=O=C(O)c1cc(=O)c2ccccc2[nH]1 reported=154.12
compound=O=C(O)[C@@H](O)[C@@H](O)[C@@H](O)CO reported=143.47
compound=C[C@]12CCC(=O)C=C1CC[C@@H]1[C@@H]2CC[C@]2(C)C(=O)CC[C@@H]12 reported=204.73
compound=CSC[C@H]1O[C@@H](n2cnc3c(N)ncnc32)[C@H](O)[C@@H]1O reported=176.54
compound="CCCCC[C@H](O)/C=C/[C@H]1C(=O)C[C@H](O)[C@@H]1C/C=C\\CCCC(=O)O [Prostaglandin D2]" reported=196.63
compound=O=c1ccc2ccc(O)cc2o1 reported=154.46
compound=NC(=O)[C@@H]1CCCN1C(=O)[C@H](Cc1cnc[nH]1)NC(=O)[C@@H]1CCC(=O)N1 reported=184.12
compound=CCCCCCCCCCCCCCCC(=O)O reported=185.22
compound=OC[C@H]1O[C@H](OC[C@H]2O[C@H](O[C@]3(CO)O[C@H](CO)[C@@H](O)[C@@H]3O)[C@H](O)[C@@H](O)[C@@H]2O)[C@H](O)[C@@H](O)[C@H]1O reported=208.72
compound=C[N+](C)(C)CCOP(=O)([O-])OP(=O)(O)OC[C@H]1O[C@@H](n2ccc(N)nc2=O)[C@H](O)[C@@H]1O reported=208.98
compound="CC/C=C\\C[C@H](O)/C=C/C=C\\C=C\\C=C\\[C@@H](O)[C@@H](O)C/C=C\\CCC(=O)O [Resolvin D1]" reported=197.87
compound=COc1c(Cl)ccc(Cl)c1C(=O)O reported=157.21
compound=CCCCCCCCCCCCCCCC/C=C\OC[C@@H](O)COP(=O)([O-])OCC[N+](C)(C)C reported=238.37
compound=Cn1cnc2[nH]c(N)nc(=O)c21 reported=149.72
compound=OC[C@H]1O[C@H](OC[C@H]2O[C@H](OC[C@H]3O[C@H](O[C@]4(CO)O[C@H](CO)[C@@H](O)[C@@H]4O)[C@H](O)[C@@H](O)[C@@H]3O)[C@H](O)[C@@H](O)[C@H]2O)[C@H](O)[C@@H](O)[C@H]1O reported=236.4
compound=Cn1c(N)nc2c(ncn2[C@@H]2O[C@H](CO)[C@@H](O)[C@H]2O)c1=O reported=180.8
compound=CC(=O)N[C@@H](CC(=O)O)C(=O)O reported=143.7
compound=COc1cc2c(cc1O)CC[C@@H]1[C@@H]2CC[C@]2(C)C(=O)CC[C@@H]12 reported=201.71
compound=O=c1[nH]c(=O)c2ncn([C@@H]3O[C@H](CO)[C@@H](O)[C@H]3O)c2[nH]1 reported=177.45
compound=Oc1cc(O)c2c(c1)O[C@H](c1ccc(O)c(O)c1)[C@@H](O)C2 reported=184.42
compound=Cc1ncc(CO)c(CO)c1O reported=148.49
compound="OC[C@H]1O[C@H](O[C@H]2[C@H](O)[C@@H](O)[C@@H](O[C@H]3[C@H](O)[C@@H](O)C(O)O[C@@H]3CO)O[C@@H]2CO)[C@H](O)[C@@H](O)[C@@H]1O (some centres not stated)" reported=212.54
compound=CC(=O)[C@H]1CC[C@H]2[C@@H]3CC=C4C[C@@H](O)CC[C@]4(C)[C@H]3CC[C@]12C reported=216.16
compound=O=C(O)CNC(=O)c1ccccc1 reported=154.06
compound=O=c1c(-c2ccc(O)cc2)coc2cc(O)ccc12 reported=173.13
compound=COc1ccc(-c2coc3cc(O)ccc3c2=O)cc1 reported=176.14
compound=O=C(O)Cc1cnc[nH]1 reported=148.03
compound="CC1=CC(=O)CC(C)(C)C1(O)/C=C/C(C)=C\\C(=O)O (configuration not stated) [Abscisic Acid]" reported=176.18
